Test: Toxicity liver stage against HepG2, at 10uM
Type: cell-based
Set-up: test concentration 10 uM, cell line HepG2-A16-CD81EGFP
Details: human, HepG2-A16-CD81EGFP cells; read-out: INHIBITION
// reported cytotoxicity at 10 µM per item
Include the unit after the number when you answer.

Examples with answers:
INSERT INTO results (compound, endpoint_result) VALUES
  ('COC1CC2(CCN(Cc3nccn3C)CC2)C1', '-133%'),
  ('CC(C)Cn1cc2nc(N3CCC(O)CC3)[nH]cc-2c1=O', '5.92%'),
  ('CCOC(=O)CCNC(=O)c1cccc2ccc(C)nc12', '-5.15%'),
  ('Cc1nn(C)cc1NC(=O)CC1CCN(CCc2ccccc2)CC1', '-4.92%');

Quick note, cytotoxicity at 10 µM for CN(C)CCN1CCOCC2(CCCN(C(=O)c3cccn3C)C2)C1 (stereo not given) landed at 4.87%

###

Assay: Toxicity liver stage against HepG2, at 10uM
Type: cell-based
Design: test concentration 10 uM, cell line HepG2-A16-CD81EGFP
Conditions: human, HepG2-A16-CD81EGFP cells; read-out: INHIBITION
cytotoxicity at 10 µM overview
Numbers only; they are read as %.

INSERT INTO measurements (compound, readout_label, endpoint_result) VALUES
  ('COCC1CN(Cc2cccnc2)Cc2nnn(CC3CC3)c21 (stereo unspecified)', 'cytotoxicity at 10 µM', -0.0925);

Data point: CC(=O)NCCCNC(=O)Nc1ccccc1-n1nc(C)cc1C ; cytotoxicity at 10 µM = 6.57

The compound CN(CCC(F)(F)F)C(=O)C1CSCN1C(=O)C(C)(C)C (stereo unspecified) showed cytotoxicity at 10 µM equal to 9.07

###

Assay: Toxicity liver stage against HepG2, at 10uM
Type: cell-based
Set-up: test concentration 10 uM, cell line HepG2-A16-CD81EGFP
Conditions: human, HepG2-A16-CD81EGFP cells; read-out: INHIBITION
Each record here notes measured cytotoxicity at 10 µM.
Express the result in % but write the number alone.

Notebook: C[C@@H]1CN(S(=O)(=O)N2CCCC2)CC[C@@]1(O)C1CCOCC1 , cytotoxicity at 10 µM read as 4.49

Consider CCC(=O)NC(c1ccc(C)cc1)c1cccc(S(C)(=O)=O)c1 (stereo not given) . Its measured cytotoxicity at 10 µM is -7.62

The molecule listed as Cc1noc(C)c1CN(C)CC1CC(C2CCCCC2)=NO1 (stereo not given) shows cytotoxicity at 10 µM equal to 3.72

Per the record, CN1CCN(C[C@H]2OC[C@@H]3CCN(Cc4ccsc4)C[C@@H]32)CC1 has cytotoxicity at 10 µM of -2.19

Reported cytotoxicity at 10 µM for COCCN1CCN(Cc2ccc(Cl)cc2)[C@H]2CS(=O)(=O)C[C@H]21 was -4.01

# molecule CCCS(=O)(=O)N1C[C@@H]2CN(Cc3cnn(C)c3)CCO[C@@H]2C1 ; its cytotoxicity at 10 µM = 0.835

In plain terms, O=C1CC[C@H]2[C@H](CCN2Cc2ccccn2)N1CC1CCOCC1 has a documented cytotoxicity at 10 µM of 3.59

GET /value?item= Cc1cc2c(N)nc(=O)n(CC(=O)Nc3ccccc3)c2s1 &field=cytotoxicity at 10 µM returns 1.54

Record summary for O=C(NC1CC1)C1CCc2nnc(C3CC3)n21 (stereo not given) : reported cytotoxicity at 10 µM = 11.2

According to the records, this molecule O=C(CN1CC(c2nc(-c3ccco3)no2)C1)NCC1CCCO1 (stereo not given) displays cytotoxicity at 10 µM of 2.21

According to the records, this molecule O=C(NCc1cnc2n1CCN(CC1CC1)C2)C1CC1 displays cytotoxicity at 10 µM of 5.06

Memo: Cc1nc(N2CCCC2)ncc1-c1cc(O)nc(N2CCOCC2)n1 , reported cytotoxicity at 10 µM: 10.4

The molecule Cc1noc(C)c1-c1cc(CCC2CN(CCC(N)=O)CCO2)ncn1 (stereo not given) showed cytotoxicity at 10 µM equal to 6.11

Field cytotoxicity at 10 µM (entry CCN(CC1CCOCC1)C(=O)CCNC(=O)c1ccccc1F ) reads -43.1

Looking up CC(C)c1cc(NC(CO)CO)n2nccc2n1 , I see its cytotoxicity at 10 µM listed as 6.33

// cytotoxicity at 10 µM lookup, molecule = CC(C(=O)N1CCOCC1)S(=O)(=O)Cc1nc(C(C)(C)C)no1 (stereo not given) , result: -3.82

###

As shown below, each of these molecules has a reported cytotoxicity at 10 µM value.
Assay: Toxicity liver stage against HepG2, at 10uM
Assay type: cell-based
Set-up: test concentration 10 uM, cell line HepG2-A16-CD81EGFP
Conditions: human, HepG2-A16-CD81EGFP cells; read-out: INHIBITION
Your answer is read as %, so omit the unit and give the number.

Look over these answered cases.
INSERT INTO measurements (molecule, readout_label, endpoint_result) VALUES
  ('COCC1CN(Cc2ccoc2)Cc2cn(CC3CCCC3)nc21 (stereo not given)', 'cytotoxicity at 10 µM', 4.32),
  ('CN(C)CC(=O)N1CCC2(CC1)Cc1ccccc1CN(C)C2=O', 'cytotoxicity at 10 µM', -2.96),
  ('CC(C)(O)CN1CCN(C(=O)COC2CCCCC2)CC1', 'cytotoxicity at 10 µM', -2.77),
  ('CC(C)CCN1C[C@H]2CCN(C(=O)NC3CCCC3)CC[C@H]2S1(=O)=O', 'cytotoxicity at 10 µM', 4.87),
  ('CN1CCN(c2cc(CCNC(=O)C3CCC3)nc(C3CC3)n2)CC1', 'cytotoxicity at 10 µM', 0.462),
  ('CN(Cc1nccn1CC(F)(F)F)C(=O)c1ccc2c(c1)OCO2', 'cytotoxicity at 10 µM', 1.09),
  ('Cc1cc(C)c(C(=O)NCCNc2ncnc3ccccc23)c(=O)[nH]1', 'cytotoxicity at 10 µM', 21),
  ('Cc1cnn(CC2CCCN2C(=O)CCc2c(C)nc(C)[nH]c2=O)c1 (stereo not given)', 'cytotoxicity at 10 µM', -2.79),
  ('Cc1nn(C)c(C)c1CNC(=O)c1cc(NC(=O)C2CC2)n(C)n1', 'cytotoxicity at 10 µM', 5.31),
  ('Cc1csc(NC(=O)CN2CCc3nn(C)c(=O)cc3C2)n1', 'cytotoxicity at 10 µM', -0.995);

cytotoxicity at 10 µM reading for CCOc1ccc(NC(C)C(=O)NCCc2cccs2)cc1CO (stereo not given) : -6.79

Record Cc1nc(C)c(COc2ccc(N(C)S(C)(=O)=O)cc2)s1 . Reported cytotoxicity at 10 µM: 23.2

Notebook: CC(C)(C)c1c[nH]c([C@@H]2COCCN2C2CCC2)n1 , cytotoxicity at 10 µM read as 5.99

Input Cn1ccnc1CN1CCCC(CCc2ccc(F)c(F)c2)C1 (stereo not given) . Output cytotoxicity at 10 µM: -6.9

Looking up CC(C)Nc1ncccc1C(=O)NCc1ccnn1C , I found its cytotoxicity at 10 µM recorded as -5.87

Reported cytotoxicity at 10 µM for Cc1cc(CN(CCO)c2ccc(Br)cc2)on1 was 1.78

Lab note: measured cytotoxicity at 10 µM of O=C(O)c1cc2c(nc1N1CCOCC1)CCN(C1CCOC1)CC2 (stereo not given) was 6.68

Recorded cytotoxicity at 10 µM (molecule Cc1nnc(CN2CCOC(c3ccc(Cl)cc3)C2)o1 (stereo not given) ): 5.33

Sure, the documented cytotoxicity at 10 µM for CCOC(=O)c1sc2ccsc2c1CNC(=O)C(C)(C)C#N is -4.42

cytotoxicity at 10 µM for Cc1nc(CNC(=O)NC2CCN(c3ncccc3Cl)C2)no1 (stereo not given) is 11.9

###

Assay: Toxicity liver stage against HepG2, at 10uM
Assay type: cell-based
Parameters: test concentration 10 uM, cell line HepG2-A16-CD81EGFP
Details: human, HepG2-A16-CD81EGFP cells; read-out: INHIBITION
READOUT_LABEL: cytotoxicity at 10 µM (%)
I only need the number, in %, no unit after it.

Previously resolved entries follow.
INSERT INTO measurements (molecule, unit_text, endpoint_result) VALUES
  ('CC1CCC(NC(=O)CNC2(c3ccc(F)cc3)CCOCC2)CC1 (stereo unspecified)', '%', 7.79),
  ('COCCOc1ccc(NCc2cccc3cn[nH]c23)cn1', '%', 5.04),
  ('CC(O)CN1CCC(CNCc2ccc(C(N)=O)cc2)CC1 (stereo unspecified)', '%', -9.83),
  ('CS(=O)(=O)N1CC[C@H]2O[C@H](C(=O)NCCc3ccccn3)CC[C@H]21', '%', 8.5),
  ('O=C(O)C1CCCN(C(=O)CCn2ccc3c(Br)cccc32)C1 (stereo unspecified)', '%', 10.9);

Sample CN(Cc1ccccc1C#N)C1CCN(CCc2ccccn2)CC1 ; cytotoxicity at 10 µM observed: -6.55

Short answer for Cc1n[nH]c(C)c1C1CCCN1C(=O)NCCSC(C)(C)C (stereo unspecified) : cytotoxicity at 10 µM was -11

Quick note, cytotoxicity at 10 µM for Cc1cc(-c2nn(C)c(Cl)c2CN2CCOCC(O)C2)no1 (stereo unspecified) landed at -14.8

Reported cytotoxicity at 10 µM of CCn1cnnc1C1CCN(C(=O)c2cnc(C3CC3)s2)CC1 : -7.59

According to the records, this molecule NS(=O)(=O)c1cnn(CCC(=O)N(C2CCCCC2)C2CC2)c1 displays cytotoxicity at 10 µM of -0.157

# cytotoxicity at 10 µM (molecule: CCOCCN1CCN(C(C)C(=O)Nc2ccnn2C(C)C)CC1 (stereo unspecified) ) is -7.87

Quick note, cytotoxicity at 10 µM for CCc1ccc(S(=O)(=O)Nc2cc(OC)c(OC)cc2C(=O)O)s1 landed at -7.22

// OC1(CNCCCN2CCCc3ccccc32)CNCCOC1 (stereo unspecified) : cytotoxicity at 10 µM value = 13.2

Query c1ccc(CO[C@H]2CC[C@H]3[C@H]2OCCN3Cc2nccs2)nc1 yields cytotoxicity at 10 µM of 5.83
